- SYSTEM_UNDER_TEST: SST2 (Homo sapiens, UniProt P30874)
- Construct: host or cells: PathHunter CHO-K1 SST2 cells
- Sequence (P30874 whole entry): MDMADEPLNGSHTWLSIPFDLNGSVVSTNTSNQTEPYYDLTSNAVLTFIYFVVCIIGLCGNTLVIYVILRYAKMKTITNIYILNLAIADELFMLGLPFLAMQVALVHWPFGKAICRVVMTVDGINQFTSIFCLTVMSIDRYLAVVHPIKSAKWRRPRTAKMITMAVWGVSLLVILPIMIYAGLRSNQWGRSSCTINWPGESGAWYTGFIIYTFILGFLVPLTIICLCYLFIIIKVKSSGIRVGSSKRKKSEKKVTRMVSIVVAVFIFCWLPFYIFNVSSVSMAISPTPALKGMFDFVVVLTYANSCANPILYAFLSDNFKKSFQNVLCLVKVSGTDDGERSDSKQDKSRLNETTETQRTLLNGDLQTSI
- ASSAY_OVERVIEW: PathHunter CHO-K1 SST2 internalization assay
- Format: cell-based
- CONDITIONS_USED: PathHunter CHO-K1 SST2, 90 min; read-out: Internalization EC50
Catalogue of EC50 readings, one per entry.
The answer should read as a number with its unit following.

INSERT INTO results (compound, observed) VALUES
  ('CC[C@H](C)[C@@H]([C@@H](CC(=O)N1CCC[C@H]1[C@H](OC)[C@@H](C)C(=O)N[C@H](C)[C@@H](O)c1ccccc1)OC)N(C)C(=O)[C@@H](NC(=O)[C@H](C(C)C)N(C)C(=O)OCc1ccc(NC(=O)[C@H](CCCNC(N)=O)NC(=O)[C@@H](NC(=O)CCOCCC(=O)NCCNc2ncc(-c3cc(C)cc(F)c3)c(N3CCC(N)CC3)c2-c2nc3ccc(Cl)cc3[nH]2)C(C)C)c(O[C@@H]2O[C@H](C(=O)O)[C@@H](O)[C@H](O)[C@H]2O)c1)C(C)C [Compound 61]', '12.7 nM');

// next entry
Need EC50, item CC[C@H](C)[C@@H]([C@@H](CC(=O)N1CCC[C@H]1[C@H](OC)[C@@H](C)C(=O)N[C@H](C)[C@@H](O)c1ccccc1)OC)N(C)C(=O)[C@@H](NC(=O)[C@H](C(C)C)N(C)C(=O)OCc1ccc(NC(=O)CCOCCOCCOCCOCCC(=O)NCCNc2ncc(-c3cc(C)cc(F)c3)c(N3CCC(N)CC3)c2-c2nc3ccc(Cl)cc3[nH]2)c(O[C@@H]2O[C@H](C(=O)O)[C@@H](O)[C@H](O)[C@H]2O)c1)C(C)C [Compound 64]
12 nM
